Here the recorded GI50 is given for each entry.
tested on: A549; assay: NCI tumour cell line growth inhibition, 48 h
Calls of active or inactive are those of the source. Cut-off read from the data, not from the text of the source: active = GI50 up to about 1.1 µM and inactive = higher.
measured-property: GI50

>>> test_result("CN(C)CCCNc1ccc2nnn3c4ccc(OC(=O)c5ccccc5)cc4c(=O)c1c23")
"2.43 µM (inactive)"
>>> test_result("O=c1[nH]nc(-c2ccccc2)n1-c1cccc([N+](=O)[O-])c1")
"> 100 µM (inactive)"
>>> test_result("CC/C(CC(=O)CCC(=O)Nc1ccccc1[N+](=O)[O-])=N/NC(=O)C[n+]1ccccc1")
"> 100 µM (inactive)"
>>> test_result("COc1cc2ncnc(NS(=O)(=O)c3cc4ccccc4s3)c2cc1OC")
"> 100 µM (inactive)"
>>> test_result("Cc1c(Cl)ccc2c(=O)c3cccc(CC(=O)O)c3oc12")
"> 100 µM (inactive)"

* * *

GI50 by entry:
tested on: DMS-114; experiment: NCI tumour cell line growth inhibition, 48 h
Active and inactive are the calls of the source. Rule as the data show it: active = GI50 up to about 1.1 µM and inactive = higher.
measured-property: GI50

>>> test_result("N#CNc1nc(C(=O)Nc2ccc(Cl)cc2)cc(-c2ccccc2)n1")
"> 100 µM (inactive)"
>>> test_result("CC1=CP(=O)(OC(C)C)C=C(C)C1=C(Cl)Cl (stereo not drawn)")
"50.1 µM (inactive)"
>>> test_result("O=C1C2=C(c3ccccc31)C(c1ccc([N+](=O)[O-])cc1)NC(S)=N2 (stereo not drawn)")
"36.8 µM (inactive)"

* * *

tested on: OVCAR-3; experiment: NCI tumour cell line growth inhibition, 48 h
Calls of active or inactive are those of the source. Rule as the data show it: active = GI50 up to about 1.1 µM and inactive = higher.
Readings of GI50 for the listed molecules
measured-property: GI50

>>> test_result("CC(C)(C)c1cc(C(=O)/C=C/c2ccc(O)c(O)c2O)cc(C(C)(C)C)c1O")
"3.52 µM (inactive)"
>>> test_result("CC1(C)O[C@H]([C@H](O)c2nnc3ccc(Cl)nn23)[C@@H]([C@H]2COC(C)(C)O2)O1")
"> 100 µM (inactive)"
>>> test_result("Cc1ccc(Cn2c(C)nc3c2C(=O)c2ccccc2C3=O)cc1")
"10.6 µM (inactive)"

* * *

system: DMS-273; assay: NCI tumour cell line growth inhibition, 48 h
Activity calls are given as the source filed them. Rule as the data show it: active = GI50 up to about 1.1 µM and inactive = higher.
Outcomes: T (active), F (inactive)

>>> assigned_class("O=[N+]([O-])c1cc(-c2nnc(S)[nH]2)ccc1O")
"F"
>>> assigned_class("Cn1cc(C(=O)/C(Cl)=C(\\Cl)C(=O)O)c2ccccc21")
"F"
>>> assigned_class("COC(=O)C1CCc2nnc(-c3cccnc3)n21 (stereo unspecified)")
"F"
>>> assigned_class("O=C(O)C1OC(Oc2cc(O)c3c(=O)cc(-c4ccc(O)cc4)oc3c2)C(O)C(O)C1O (stereo unspecified)")
"F"
>>> assigned_class("COc1c(C)n(CCO)ccc1=O")
"F"
>>> assigned_class("O=C(O)CCCc1cc2c(s1)-c1cccc3cccc-2c13")
"F"
>>> assigned_class("CC(=O)C1=NN(c2ccccc2)C2(S1)SC(c1ccccc1)(c1ccccc1)c1ccccc12 (stereo unspecified)")
"F"
>>> assigned_class("N#CCC(=O)Nc1cccc(C(F)(F)F)c1")
"F"
>>> assigned_class("CC(C)N(C(=O)C12CC3CC(CC(C3)C1)C2)C(C)C")
"F"
>>> assigned_class("CN1CC[C@@H](c2c(O)cc(O)c3c(=O)cc(-c4ccccc4Cl)oc23)[C@@H](O)C1")
"T"
>>> assigned_class("O=C(O)c1ccc([Se][Se]c2ccc(C(=O)O)cc2)cc1")
"F"
>>> assigned_class("CC1(C)CCCC2(C)[C@@H]1CC[C@]13C[C@](C)(CC[C@@H]21)[C@@H]3CO (stereo partly specified)")
"F"
>>> assigned_class("COc1cc2nc(-c3cccc(N(C)C)c3)cc(O)c2cc1OC")
"F"
>>> assigned_class("COc1cc2c(cc1OC)C(Cl)C(c1ccc(F)cc1)=C2Cl (stereo unspecified)")
"F"
>>> assigned_class("N#CCCN(CCC#N)c1ccc(/C=C2\\N=C(c3cc([N+](=O)[O-])ccc3Cl)OC2=O)cc1")
"F"
>>> assigned_class("Cc1cc(Cl)ccc1NC1=NC(=O)C(CC(=O)Nc2ccc(Cl)cc2Cl)S1 (stereo unspecified)")
"F"
>>> assigned_class("Cc1c2ccnc(C(F)(F)F)c2cc2c1[nH]c1ccccc12")
"F"
>>> assigned_class("O=C1CCC2(c3ccccc3)OCC([C@@H](O)c3ccccc3)N12 (stereo partly specified)")
"F"
>>> assigned_class("COc1ccc(N2C(=O)C3c4[nH]c5ccccc5c4C4CC(C)(C)CC(C)(C)C4C3C2=O)cc1 (stereo unspecified)")
"F"
>>> assigned_class("CC(C)OP(=O)(OC(C)C)/C(=N/Nc1ccc([N+](=O)[O-])cc1)NCCO")
"F"
>>> assigned_class("Nc1ccc2c(c1)C(=O)N(OS(=O)(=O)c1ccccc1)C2=O")
"F"

* * *

This section presents compounds with their documented GI50 values.
system: HCT-116; experiment: NCI tumour cell line growth inhibition, 48 h
Calls of active or inactive are those of the source. Rule as the data show it: active = GI50 up to about 1.1 µM and inactive = higher.
measured-property: GI50

>>> test_result("O=C1/C(=N\\NC(=S)NC2CCCCC2)c2cc([N+](=O)[O-])ccc2N1CN1CCOCC1")
"3.57 µM (inactive)"
>>> test_result("COc1cc2ncnc(NS(=O)(=O)c3cc4ccccc4s3)c2cc1OC")
"> 100 µM (inactive)"
>>> test_result("COc1cc(CNC(=O)CCCCCCCCCCSSCCCCCCCCCCC(=O)NCc2ccc(O)c(OC)c2)ccc1O")
"> 10 µM (inactive)"
>>> test_result("COc1ccccc1-n1c(C)nc2ccccc2c1=O")
"> 100 µM (inactive)"
>>> test_result("CCCCCCCCCCCC(=O)OCCOCCOCCOCCOCCOCc1ccccc1")
"> 100 µM (inactive)"
>>> test_result("COc1cc2oc(=O)cc(C)c2cc1O")
"> 100 µM (inactive)"
>>> test_result("[O-][Cl+3]([O-])([O-])[O-].c1ccc(-c2[o+]c(-c3ccccc3)c(-c3ccccc3)c(-c3ccccc3)c2-c2ccccc2)cc1")
"> 100 µM (inactive)"
>>> test_result("Cc1sc(Cc2ccccc2)nc1-c1ccc(N)cc1")
"20.2 µM (inactive)"
>>> test_result("C[N+](C)(C)C1=NNC2=Nc3ccccc3SC2=C1")
"13.9 µM (inactive)"
>>> test_result("O=C1C=C(Nc2ccc(Cl)cc2Cl)c2ccccc2C1=O")
"35 µM (inactive)"

* * *

tested on: CCRF-CEM; experiment: NCI tumour cell line growth inhibition, 48 h
Calls of active or inactive are those of the source. Cut-off read from the data, not from the text of the source: active = GI50 up to about 1.1 µM and inactive = higher. Residues, ends and D or L forms follow the SMILES beside them. *: point of attachment. Cbz = O=C(OCc1ccccc1)*
Each entry below carries its reported GI50.
measured-property: GI50

>>> test_result("N#CCC(=O)Nc1cccc(C(F)(F)F)c1")
"> 100 µM (inactive)"
>>> test_result("FC(F)(F)C1(c2ccccc2)SCc2nc3ccccc3n21 (stereo not given)")
"88.1 µM (inactive)"
>>> test_result("CC1=CC(=O)/C(=C/NC(=S)Nc2ccccc2)C(=O)O1")
"> 100 µM (inactive)"
>>> test_result("Cc1ccc(NC(=O)C(=O)Cc2cccc[n+]2[O-])cc1C")
"> 100 µM (inactive)"
>>> test_result("Oc1nc2cc3nc(O)c(O)nc3cc2nc1O")
"> 100 µM (inactive)"
>>> test_result("CC(C)OP(=O)(OC(C)C)/C(=N/Nc1ccc([N+](=O)[O-])cc1)NCCO")
"> 100 µM (inactive)"
>>> test_result("CN(Cc1ccccc1)C1(N(C)Cc2ccccc2)CC1")
"> 100 µM (inactive)"
>>> test_result("CCOC(=O)CCC(NC(=O)OCc1ccccc1)C(=O)NC(CCC(=O)OCC)C(=O)OCC (stereo not given) (Cbz-Glu(OEt)-Glu(OEt)-OEt; configuration not given here)")
"> 100 µM (inactive)"
>>> test_result("C=C(C)C1CC2(C)C(C)CC(O)CC2C(OC(=O)C=C(C)C)C1O (stereo not given)")
"30.8 µM (inactive)"
>>> test_result("Cc1cc2c3c(c1)S(=O)(=O)c1cc(Cl)ccc1N3CCC2")
"> 100 µM (inactive)"

* * *

test system: COLO 205; test: NCI tumour cell line growth inhibition, 48 h
Active and inactive are the calls of the source. No stated cut-off is given here; in the data, active = GI50 up to about 1.1 µM and inactive = higher.
Outcomes: 1 (yes) for active, 0 (no) for inactive

>>> assigned_class("COc1cc2c(cc1OC)C(Cl)C(c1ccc(F)cc1)=C2Cl (stereo unspecified)")
"0 (no)"
>>> assigned_class("[N-]=[N+]=NC1=CC(=O)c2cccc3cccc1c23")
"0 (no)"
>>> assigned_class("O=C1C2=C(c3ccccc31)C(c1ccccc1)NC(S)=N2 (stereo unspecified)")
"0 (no)"
>>> assigned_class("Cc1cc(N2CCCCC2)nc2ccc(Cc3ccc4nc(N5CCCCC5)cc(C)c4c3)cc12")
"0 (no)"
>>> assigned_class("Cc1ccc(/N=C/C=C(\\Nc2ccc(C)cc2)c2ccc3ccccc3c2)cc1")
"1 (yes)"
>>> assigned_class("CC1=CC[C@](C)(O)[C@@]2(C)CC[C@H]3C(=C(C)C)C(=O)C[C@]3(C)C[C@H]12")
"0 (no)"
>>> assigned_class("O=C1C2=C(c3ccccc31)C(c1ccc([N+](=O)[O-])cc1)NC(S)=N2 (stereo unspecified)")
"0 (no)"
>>> assigned_class("NC(=S)N/N=C/c1nccc2ccccc12")
"1 (yes)"
>>> assigned_class("CC1(C)C2CC(O)C1CCC2=O (stereo unspecified)")
"0 (no)"
>>> assigned_class("C/C(=C(/C)c1cc[n+](C)cc1)c1cc[n+](C)cc1")
"0 (no)"
>>> assigned_class("C/C=C\\C(C)=C/C(C)C(=O)CC(O)CC1CC(=O)NC(=O)C1 (stereo unspecified)")
"0 (no)"
